Origin of measurements: the supplement of paper PMC10567573

- Procedure Text: protein stability index of a GFP-peptide fusion (GPS, HEK-293T) (PSI 1-6); higher = more stable;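 note: 24-mer peptide tiles fused after GFP, lentivirally expressed, FACS-sorted into six equal bins by GFP/DsRed ratio, decoded by Illumina sequencing, PSI is the read-weighted mean bin number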
- Measurement Context: treatment: MLN4924 1 uM, 8 h; c terminus: a fixed tail appended
Label f if protein stability index falls below 3; label t in every other case.

1) PTTGYRRLLRFSSQIHNNGQSDFR [LOXL2] = t
2) GGLATGIAGGLAGMGGIQNEKETM [KRT18] = t
3) CFKGELPLRAVHINLEEKEKQIRS [PLEKHN1] = t
4) CWDMQGKRFVAMKVVKSAQHYTET [SRPK2] = f
5) DVNSFVTECEPSELFQLQTYSLPP [CDS1] = t
6) ADIKQYIGPPSAAAIFKIYLSCLE [TRIP13] = f
7) KTIEDLRNKIIAATIENAQPILQI [KRT16] = f
8) GKTMELFCQTDQTCICYLCMFQEH [TRIM29] = f
9) DAETSKLIYDFIEDQGGLEAVRQE [WAS] = t
10) GQWLGGRQIRTNWATRKPPAPKST [TIA1] = t
11) RPQHSHSNKKRPSLDGRDPGNGTH [ELOA2] = t
12) PVEEPEPKPDRLLVLKVLWNDFLM [SLC19A2] = f
13) FPAVTVEVKSSIAGSSTWERYFIP [SLC29A1] = f
14) GPEHATRLNGTAKGERRREPGGYD [DVL3] = t
15) ALVVPKGNTAVSVLMLLVALLFTG [SCAMP3] = f
16) GLEAPRDLEAKEVTPRTALLTWTE [TNXB] = t
17) GKIVGSLCAIAGVLTIALPVPVIV [KCNA1] = t
18) LGVVYRSLSFEDELVYADDYIMDE [ESRRG] = f
19) GFLTVTNLGVENMNHYKKTTLEIH [PTPN9] = f
20) LLGEPLAGPELDEMLREVDLNGDG [CABP4] = t
21) AVNLIESGACGAFVHGLEDEMYEV [INTS4] = t
22) NKTPGAPESSALQPPPQSSEGLVG [WAS] = t
23) QTLDKKLMSDLRRKRTAHERAKEL [INTS4] = t
24) ASKDPREVREARDHKEPKEEINKN [EHMT1] = t

====

- Procedure Text: protein stability index of a GFP-peptide fusion (GPS, HEK-293T) (PSI 1-6); higher = more stable
- Measurement Context: treatment: MLN4924 1 uM, 8 h; c terminus: a fixed tail appended
Property Label: protein stability index

1) LYWTKWYNNQSLGHGSHSFIYYEN [PKD2L1] = 2.41
2) NTIAFRHLFLLGYSDGADDTFAAY [MCOLN1] = 2.33
3) DSTKTAFHRSQTLSYRNGYAIVRR [EFHC1] = 3.48
4) RITQYLDAGGIPRTAQSEETRVWH [CAMK2A] = 3.24
5) ATYRSLLEGQDAKMIGFPSSAGSV [KRT13] = 3.54
6) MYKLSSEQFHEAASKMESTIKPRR [CHCHD6] = 4.07
7) LLLFLVFVIVLFFIYHFMQAEEGN [EMD] = 2.42

====

- Procedure Text: protein stability index of a GFP-peptide fusion (GPS, HEK-293T) (PSI 1-6); higher = more stable
- Measurement Context: treatment: DMSO; c terminus: a fixed tail appended
Recorded protein stability index by entry
Property Label: protein stability index

1) KFYPPDPAQLSEDITRYYLCLQLR [EPB41L3] = 2.49
2) EGMDFHRFYFENLLAKNSKPIHTT [CAMK2B] = 2.52
3) ATGPMGMRGFKGDRGPKGEKGEKG [SCARA5] = 5.22
4) NETQPIDLSGLPLQSSKNSYSFQN [RNF180] = 3.95
5) GARLVAACSAWLCPGLRLPGSLAG [AUH] = 2.55
6) CFKGELPLRAVHINLEEKEKQIRS [PLEKHN1] = 3.95
7) LMVGPNFRVGKKIGCGNFGELRLG [CSNK1G3] = 1.9
8) GKTDDTLALLNLACMMTITFLPYT [TMEM175] = 3.21
9) TAHMLGVRELRIAFREFDRDRDGR [CABP4] = 3.68
10) LFQTHENREHLVMMEKILGPIPSH [CLK3] = 2.85
11) GVFKFLRSEAVAQLWGQKKKNSNM [ELF3] = 2.83
12) GSQAGGSGSAGQYGSDQQHHLGSG [MYOZ1] = 4.94
13) CHEDVEALAAIYEEKEAWYREESD [DAPK3] = 5.1

====

- Procedure Text: protein stability index of a GFP-peptide fusion (GPS, HEK-293T) (PSI 1-6); higher = more stable
- Measurement Context: treatment: MLN4924 1 uM, 8 h; c terminus: a fixed tail appended
Class (by protein stability index) -- bin A: < 3; bin B: ≥ 3 and < 4; bin C: ≥ 4

1. NVINHFYCDLPQLFQLSCSSTQLN [OR3A1] = bin A
2. NITDETPDNCEMFLNFNGMKLFLD [ZER1] = bin B
3. LLPKSRENYLNRCMDQERLRREST [FCHO1] = bin B
4. AAQPMTKKRKVDGLSTEAEQPFIP [PRAME] = bin C
5. LASYLEKVRQLERDNAELENLIRE [KRT33B] = bin B
6. IIELLASDAGSPSLHKHLTIRLNI [PCDHGC5] = bin B
7. EVSHPFLIRLFWTWHDERFLYMLM [PRKX] = bin A
8. NFSVDRWERKEGGGGISCVLQDGC [CPOX] = bin B
9. ATPEQGLSAFYLSYFDMLYPEDSS [SPDEF] = bin A
10. QPKCDNTARAHPAKARDLYKGRQL [SMOC2] = bin C
11. SCPNGMSAENGLEKSGFSQHQNKS [DLC1] = bin C
12. TARAHPAKARDLYKGRQLQGCPGA [SMOC2] = bin C
13. IEADRRRAQLHVQGLLHEAGSTDD [SPNS1] = bin C
14. NQMKERQGLFFDMEAYLPKKNGLY [TMEM120A] = bin A
15. PKAQPQTWKSGKQTMLSHYRPFYV [TRIM29] = bin A
16. VHQRTHTGEKPHTCSECGKGFIQK [ZNF649] = bin B
17. DARVKRKLRGPEPAATEAYGSGDT [TBX6] = bin C
18. LDRDALKQSLVVAVQDHGQPPLSA [PCDHGA10] = bin C
19. DENREVLQTLLYFLSDVTAAVKEN [DLC1] = bin A
20. PEDGRIFAQRTFDYELLQMLQIVV [PCDHGC5] = bin A
21. KVPESLVRSLRGEEPVPRERDRDP [LURAP1L] = bin C
22. YRSEDLLDVDTAAGGFQQRQGLKY [FBXO3] = bin C
23. RGRASGFAGSMFGSVALGPVCPTV [KRT71] = bin A
24. LGPSRDPDPLNICVFILLLVFIVV [RTP4] = bin A
25. LDMEKRRCRQSLEDSESLRIKEVE [LRRC45] = bin C
26. EEAWVKIENLAKANPQYTVYSQAS [PPP2R5C] = bin B
27. LTDFYPVRRSSRKSKAELQSEERK [KMT5A] = bin B
28. GALTPTPAPTTTTATREEASTSLP [CLPTM1] = bin C
29. LPMLSVDMENKENGSVGVKNSMEN [SAMD13] = bin C
30. IDNAADLLIFGKELSAIGSDTTPL [SNX8] = bin B
31. AMLKALLGSKHKVCMDLRANLKQV [TNNI2] = bin A
32. PAQRITLAEALLHPFFAGLTPEER [CLK3] = bin B
33. LKGVKQACCEFLESQLDPSNCLGI [KLHL12] = bin A
34. QRINTYVFVGNQLIPQPLDSEEDE [PCMTD1] = bin C
35. QQTPVGTPKDKRVSNTPLRTVDGS [PALM] = bin C
36. KFYPPDPAQLSEDITRYYLCLQLR [EPB41L3] = bin A
37. GVFKFLRSEAVAQLWGQKKKNSNM [ELF3] = bin A
38. ASGLGLEITTQFLIYASYFALIAV [SLC19A2] = bin B
39. VFYLWSAIEIFRYSFYMLTCIDMD [HACD3] = bin B
40. TRCKSSEEKKPGELKRLVESRRQQ [TRIM39] = bin C
41. ALVAAGGAPEDDEEDDGRGRGLLR [DENND6A] = bin C
42. ESGKSTIVKQMKIIHEAGYSEEEC [GNAI1] = bin C
43. GKAFPSGCSAVSEPASESVVGALP [TRAF3IP2] = bin C
44. KKLRLVFKSLDKKNDGRIDAQEIM [SLC25A25] = bin A
45. NWEAPPGAFDSFLLRFGVPSPSTL [TNXB] = bin A
46. MVGGGQPCGPNMSEVSCKKRDDYL [DCTD] = bin C
47. HQCHKVIRGRYLVALGHAYHPEEF [PDLIM7] = bin A
48. IYTHFTCATDTKNVQFVFDAVTDV [GNAI1] = bin B
49. QFSLMLCAFVGALGGAAFLGTAIF [SPNS1] = bin A
